Values compiled from patent US20140303090A1.

Give measured EC50 for each item. Keep answers brief.
The reply should be a number in nM, with the unit left off.

(Q) Given CC[C@H](NC(=O)[C@H](C)NC)C(=O)N1C[C@@H](O)C[C@H]1Cc1c(-c2[nH]c3cc(F)ccc3c2C[C@@H]2C[C@H](O)CN2C(=O)[C@H](CC)NC(=O)[C@H](C)NC)[nH]c2cc(F)ccc12 [birinapant (1), birinapant] , report its EC50 on TNF-mediated NF-κB-luc.
(A) 9

(Q) Print TNF-mediated NF-κB-luc EC50 for CC[C@H](NC(=O)[C@H](C)NC)C(=O)N1C[C@@H](O)C[C@H]1Cc1c(-c2[nH]c3cc(F)ccc3c2C[C@@H]2C[C@H](O)CN2C(=O)[C@@H](CC)NC(=O)[C@H](C)NC)[nH]c2cc(F)ccc12 [compound 3] .
(A) 1730

(Q) Look up and report EC50, with TNF-mediated NF-κB-luc as system, for CC[C@@H](NC(=O)[C@H](C)NC)C(=O)N1C[C@@H](O)C[C@H]1Cc1c(-c2[nH]c3cc(F)ccc3c2C[C@@H]2C[C@H](O)CN2C(=O)[C@@H](CC)NC(=O)[C@H](C)NC)[nH]c2cc(F)ccc12 [compound 4]
(A) 4980

(Q) Supply EC50 measured with TNF-mediated NF-κB-luc for CN[C@@H](C)C(=O)N[C@H](C(=O)N1CCC[C@H]1Cc1c(-c2ccc(-c3c(C[C@@H]4CCCN4C(=O)[C@@H](NC(=O)[C@H](C)NC)C(C)(C)C)c4ccc(F)cc4n3CCO)cc2)n(CCO)c2cc(F)ccc12)C(C)(C)C [Compound A (2), reference compound] .
(A) 8
